Experiment: AUC (0 to 6 hrs) in Sprague-Dawley rat plasma at 10 mg/kg, po administered as single dose by LC-MS/MS analysis
Format: ADME, organism-based
Set-up: time < 6 hr, dose 10 mg/kg, route oral
Below: a set of entries, each annotated with reported AUC(0-t) at 6 h.
Please give a number only; it is taken to be in µM·h.

| Smiles Representation | AUC(0-t) at 6 h (µM·h) |
| --- | --- |
| C[C@H](NS(=O)(=O)c1ccc(-c2c(C#N)c3cc(Cl)cnc3n2C2CCC2)nc1)C(F)(F)F | 2.39 |
| CCc1cnc2c(c1)c(C#N)c(-c1ccc(S(=O)(=O)N[C@@H](C)C(F)(F)F)cn1)n2C1CCC1 | 2.63 |
| C[C@H](NS(=O)(=O)c1ccc(-c2c(C#N)c3cc(Cl)cnc3n2C2CCCC2)nc1)C(F)(F)F | 6.84 |
| Cc1cnc2c(c1)c(C#N)c(-c1ccc(S(=O)(=O)N[C@@H](C)C(F)(F)F)cn1)n2C1CCC1 | 6.92 |

Q) Consider the compound shown here: COc1cnc2c(c1)c(C#N)c(-c1ccc(S(=O)(=O)N[C@@H](C)C(F)(F)F)cn1)n2C1CCC1 What is its recorded AUC(0-t) at 6 h?
A) 7.61

Q) Give the measured AUC(0-t) at 6 h of C[C@H](NS(=O)(=O)c1ccc(-c2c(C#N)c3cc(OC(F)F)cnc3n2C2CCC2)nc1)C(F)(F)F .
A) 9.37

Q) Please give the measured AUC(0-t) at 6 h for this compound: C[C@H](NS(=O)(=O)c1ccc(-c2c(C#N)c3cc(C(F)(F)F)cnc3n2C2CCC2)nc1)C(F)(F)F
A) 5.83

Q) Tell me the measured AUC(0-t) at 6 h of C[C@H](NS(=O)(=O)c1ccc(-c2c(C#N)c3cc(F)cnc3n2C2CCC2)nc1)C(F)(F)F , please.
A) 8.78

Q) # input compound: C[C@H](NS(=O)(=O)c1ccc(-c2c(C#N)c3cc(C4CC4)cnc3n2C2CCC2)nc1)C(F)(F)F ; wanted: its AUC(0-t) at 6 h
A) 10.2
